ASSAY_SYSTEM: T1, GIP Receptor (Rattus norvegicus (Rat)), P43219
T1 chain: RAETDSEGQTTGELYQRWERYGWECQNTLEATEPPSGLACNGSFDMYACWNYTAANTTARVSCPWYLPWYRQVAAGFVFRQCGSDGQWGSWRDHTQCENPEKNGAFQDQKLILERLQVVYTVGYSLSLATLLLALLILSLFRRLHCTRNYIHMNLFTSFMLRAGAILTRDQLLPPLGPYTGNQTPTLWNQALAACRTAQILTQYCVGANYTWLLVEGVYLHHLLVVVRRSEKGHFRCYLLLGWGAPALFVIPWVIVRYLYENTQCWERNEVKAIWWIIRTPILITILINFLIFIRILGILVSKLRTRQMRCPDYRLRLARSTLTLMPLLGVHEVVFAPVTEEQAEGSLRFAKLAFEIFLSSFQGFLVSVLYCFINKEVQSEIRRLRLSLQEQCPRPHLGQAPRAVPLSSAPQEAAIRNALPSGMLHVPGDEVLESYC
TEST_SUMMARY: GIP RBA, RIN
PARAMETER_MEASURED: IC50 (nM)
All answers are understood in nM, so give the number only.

input: I'd like to know its IC50. The binder in question is YSDGTFISDYSIAMDKIHQQDFVNWLLAQKPKKIRYS (modifications not checked) [0601GIP4386]
output: 156
